Test system: ATP;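 note: ATP exposure 15 min at 22 °C before imaging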
PROCEDURE_DETAILS: switch fluorescence ratio, 500 uM ATP over buffer (Cy3 cluster intensity, sum of 5 cycles each) (fold (ratio)); higher = stronger signal-on switching upon ATP binding; sequences stand for … in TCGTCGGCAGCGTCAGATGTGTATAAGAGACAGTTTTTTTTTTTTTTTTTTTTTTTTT…TC
CONDITION_INFO: aptamer strand: ATP DNA aptamer (quencher-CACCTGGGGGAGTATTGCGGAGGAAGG + anchor), 100 nM annealed; ATP concentration: 500 uM
ATTRIBUTE_MEASURED: switch fluorescence ratio

QUERY_SEQUENCE	VALUE_MEASURED
TGACGTTAAA	1.04
AGGTTAGTAG	0.973
TGCTCTACCT	1.18
AAAAATAGTT	1.03
GGTTTTTGCT	0.958
ATCTCGGATT	0.987
CCATGGGGCT	1.29
TGGCGGCTGG	0.996
ATTCTGGTGC	1.12
TTATTCATCG	1.01
GTAGTTTTGG	1.01
CATTCGATGC	1.26
AGTAGGAGCT	0.962
ATTCGCTTCT	1.02
GTTTTCGGCG	0.981
GTGTTATTTT	0.998
TTAGAATACG	1
TTGGGGCAAA	1.06
CGTGCTGCAA	4.91
TGGAGGGGAT	1.02

----------
Tested on: ATP;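 note: ATP exposure 15 min at 22 °C before imaging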
PROCEDURE_DETAILS: switch fluorescence ratio, 500 uM ATP over buffer (Cy3 cluster intensity, sum of 5 cycles each) (fold (ratio)); higher = stronger signal-on switching upon ATP binding; sequences stand for … in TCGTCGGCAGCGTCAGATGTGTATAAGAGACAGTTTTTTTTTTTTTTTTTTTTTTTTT…TC
CONDITION_INFO: aptamer strand: ATP DNA aptamer (quencher-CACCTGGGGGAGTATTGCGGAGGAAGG + anchor), 100 nM annealed; ATP concentration: 500 uM
Recorded switch fluorescence ratio by entry

QUERY_SEQUENCE	switch fluorescence ratio
TTTGCGTGTT	1.02
CATTATTTAG	1.01
AGAAATTGTT	0.999
AAAATCGTGA	1.01
GCTGGTTTGG	0.972
TCCAATCATG	0.976
CAACCGCGTA	2.36
ATTATTATTG	0.981
ATTGGGCTGT	0.993
CGTTGGTTTT	1.04
AATCCGACGA	1.66
CAAGGGGGCG	0.994
TAGGTTTCTT	1.01
GTTTGGGGCT	0.989
TGTCCGAGCA	1.75
GTTGTGTGTG	0.974
TCTTTGTTGT	1.01
ATCGGAATGG	1.05
TGGGAGTTCC	1.04
ACTTATAGGA	1.03
TGCTTATCTG	0.99
ACTGGCAGTT	1.01
AGAAGAATTT	1.02
CATGTAGGTG	1.06
GCTTTTGAGG	1.04
CATGGGGCGG	1
ACAAGGGAGA	1.06
CTTCTGTGGC	1.07
TTAGGTAGCA	1.01
ATCTAGGCAG	0.992
GCCTATAACT	1.02
AATTTGTCAT	0.972
TGGATGGAGA	1.01
TTATGACATT	1.01
CTATATTAGT	1
GGTCTACAGA	1.02
GATTTTTAGG	0.964
TTCGAGTTGG	0.977
AAATTTCTTA	1
GTTGTGCATA	1.02
GAAGACGGGA	1.01
AAGTTTTAAA	0.968
TCTTGGGCTG	0.972
